- Test system: S. aureus COL (MRSA)
- Condition parameters: COL, 4 h, pH 7.4
- Description: […]
Where a SMILES comes first, the peptide text is derived from it. [ ]: non-standard residue; d: D form. Nleu = CC(C)CNCC(=O)O; Nlys = NCCCCNCC(=O)O
We begin with a simple list: items and their reported MIC S. aureus COL (MRSA), full MH at pH 7.4.

Molecule: CC(C)C[C@H](NC(=O)[C@H](CC(C)C)NC(=O)[C@H](CCCCN)NC(=O)[C@@H](N)CCCCN)C(=O)N[C@@H](CCCCN)C(=O)N[C@@H](CC(C)C)C(=O)N[C@@H](CC(C)C)C(=O)N[C@@H](CCCCN)C(=O)N(CC(=O)N(CC(=O)N(CC(N)=O)CC(C)C)CC(C)C)CC(C)C [EB3] (H-KKLLKLLK[Nleu][Nleu][Nleu]-NH2)
System under test: S. aureus COL (MRSA)
Reading: >32 ug/mL

Data request: Would you kindly share the measured MIC S. aureus COL (MRSA), full MH at pH 7.4 for CC(C)C[C@H](NC(=O)CN(CCCCN)C(=O)[C@H](CC(C)C)NC(=O)[C@H](CC(C)C)NC(=O)[C@H](CCCCN)NC(=O)[C@H](CC(C)C)NC(=O)[C@H](CC(C)C)NC(=O)[C@H](CCCCN)NC(=O)CNCCCCN)C(=O)N[C@@H](CC(C)C)C(=O)N(CC(N)=O)CC(C)C [EB2, kKLLKLLkLLl] (H-[Nlys]KLLKLL[Nlys]LL[Nleu]-NH2) ?
Data returned: >32 ug/mL

Data request: Next entry: CC(C)C[C@H](NC(=O)[C@H](CC(C)C)NC(=O)[C@H](CC(C)C)NC(=O)CN(CCCCN)C(=O)[C@H](CC(C)C)NC(=O)[C@H](CC(C)C)NC(=O)CN(CCCCN)C(=O)[C@H](CC(C)C)NC(=O)[C@H](CC(C)C)NC(=O)CN(CCCCN)C(=O)CNCCCCN)C(N)=O [EB7, kkLLkLLkLLL] (H-[Nlys][Nlys]LL[Nlys]LL[Nlys]LLL-NH2)
Data returned: >32 ug/mL
